target_desc: Kir6.2/SUR1 (Rattus norvegicus) (UniProt P70673+Q09429)
procedure_details: Activation of Kir6.2/SUR1 in rat pancreatic islets assessed as residual glucose-induced insulin release at 10 uM relative to control
measured_endpoint: Activity (%)

[[record]]
molecule = "CC1=Nc2ccc(Cl)cc2S(=O)(=O)N1"
measured_endpoint = "Activity"
units = "%"
experimental_value = 73.9

[[record]]
molecule = "C[C@H](COC(=O)CC[P+](c1ccccc1)(c1ccccc1)c1ccccc1)NC1=NS(=O)(=O)c2cc(Cl)ccc2N1"
measured_endpoint = "Activity"
units = "%"
experimental_value = 56


(1) C[C@H](COC(=O)CCC[P+](c1ccccc1)(c1ccccc1)c1ccccc1)NC1=NS(=O)(=O)c2cc(Cl)ccc2N1
(2) C[C@H](COC(=O)C[P+](c1ccccc1)(c1ccccc1)c1ccccc1)NC1=NS(=O)(=O)c2cc(Cl)ccc2N1.[Cl-]
Inquiry: Please indicate which item has the smaller measured Activity: 1 versus 2 Indicate which entry you chose by stating its label.
Reply text: 2
(2: 27%, 1: 63.7%)

This collection of values is drawn from ChEMBL document CHEMBL2440097.
